Just for reference, patent US5225426A is where these values come from.

Test: in vivo
Settings: mouse, oral, ICR type male mice (five-week old)
Protocol: The compounds 1, 2 and 3 of this invention were tested for acute toxicity by oral administration thereof to ICR type male mice (five-week old).
Provide the reported LD50 of each item.

Problem: Which LD50 value belongs to COc1cc(C=CC(=O)c2cccc(CC3SC(=O)NC3=O)c2)ccc1O (stereo not drawn) [Compound 3] ?
Solution: ≥ 1000 mg/kg

Problem: Thanks! And COc1cc(C=CC(=O)c2ccc(CC3SC(=O)NC3=O)cc2)ccc1O (stereo not drawn) [Compound 2] ?
Solution: ≥ 1000 mg/kg

Problem: Please answer likewise for O=C1NC(=O)C(Cc2ccc(C(=O)C=Cc3ccc(O)c(O)c3)cc2)S1 (stereo not drawn) [Compound 1]
Solution: ≥ 1000 mg/kg
